The following compounds are listed with their measured Potency values.
- tested.target: Guanidinoacetate N-methyltransferase (Homo sapiens)
- protocol: Confirmatory Screen for Target Class Profiling of Small Molecule Inhibitors of Methyltransferases (AID 1745852); note: potency is the fitted concentration of half-maximal effect
- conditions: MTase-Glo luminescence, SAH detection, recombinant enzyme; series mostly up to 57.3 µM
Active and inactive are the calls of the source. Calls come from the whole dose curve.

{"compound": "CC1=CC(=O)[C@@]2(C(C)C)C[C@@H]12", "Potency": "48.2 µM (active)"}
{"compound": "O=C1c2ccccc2-c2nc3nnnn3nc21 (tested in a mixture with another compound)", "Potency": "0.482 µM (active)"}
{"compound": "Nc1ncnc2c1ncn2[C@@H]1O[C@H](C[C@@H](N)CC[C@H](N)C(=O)O)[C@@H](O)[C@H]1O", "Potency": "21.7 µM (active)"}
{"compound": "Cc1nc(CN(C)c2ncnc3ccc(-c4ccc5c(c4)OCO5)cc23)cs1", "Potency": "19.2 µM (active)"}
{"compound": "CNc1cc2c(Nc3cccc(Br)c3)ncnc2cn1", "Potency": "30.4 µM (active)"}
